Molecular target: T1, Bzz1-1, P38822
T1 sequence (P38822 478-572, looked up): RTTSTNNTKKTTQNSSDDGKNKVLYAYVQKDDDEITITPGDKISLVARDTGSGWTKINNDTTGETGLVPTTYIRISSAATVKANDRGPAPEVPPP
Experiment: SPOT array
Settings: median of control spots 4446
endpoint: SPOT intensity
Form rule: numeric answer, no unit written next to it.

As a guide, the following entries are already answered.
>>> print(df.to_string())
            binder  observed_result
0  RRRRRPHRIERPLSN                2
1  RKRRTHLRLPLIRSN                1
2  RKRAPTPPAPSRSEK               27
3  PIVPSSPAPPLPLSG                1

Below: the item to evaluate.
# input Determine from records and report SPOT intensity for GLRRARYKFPGQQKI
# output 2

Recorded values, source paper PMC2756588.
